Tested on: recombinant NL4-3 viruses with polymorphisms at IN positions 124 and 125
Test: Multiple-round infection of MT4 cells with recombinant NL4-3 viruses polymorphic at IN positions 124 and 125
Type: cell-based, HIV-1
Details: recombinant NL4-3, IN 124/125 NA
metricName: Fold change in EC50 relative to parental NL4-3, NA
Answer with the value's number alone.

Example entries begin here.
compound: Cc1ccc(C2CC2)c(-c2ccc3c(c2)CCCO3)c1[C@H](OC(C)(C)C)C(=O)O
numericResult: 1

compound: Cc1ccc(C2CC2)c(-c2cc(F)c3c(c2C)CCCO3)c1[C@H](OC1CC1)C(=O)O
numericResult: 4

compound: Cc1ccc(C2CC2)c(-c2ccc3c(c2C)CCCO3)c1[C@H](OC(C)(C)C)C(=O)O
numericResult: 2

Switching to the query record.
Ask: Fill in the blank: the reported Fold change in EC50 relative to parental NL4-3, NA of C[C@@H]1CCO[C@H]2Cn3cc(C(=O)NCc4ccc(F)cc4F)c(=O)c(O)c3C(=O)N12 [DTG, dolutegravir, reference compound] is ____.
Result: 1
